Experiment: small-molecule microarray binders of probe aLefty2, primary screen, biochemical, biotinylated probe, 635/667 nm fluorescence (AID 1094);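 also: score merges spot fluorescence near 667 nm with spot signal-to-noise ratio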
Settings: higher = more signal
Measurement kind: composite z-score
Please give only the number in your answer, with no unit.

Field: example entries. Status: answers known.
Molecule	Measurement
COc1ccccc1CN1C(=O)c2ccccc2[C@@H](C(=O)NCC(F)(F)F)[C@@H]1c1ccc(CO)cc1	-0.107
CN(C)CCCNC(=O)[C@@H]1c2ccccc2C(=O)N(Cc2cc(F)cc(C(F)(F)F)c2)[C@H]1c1ccc(CO)cc1	-0.166
CC(CCN1CCCCc2nc(C)c(C)cc21)=NOC(C)CN1CCCCc2nc(C)c(C)cc21 (centres undefined)	-0.0101
COCCOC(=O)N1C(=O)[C@@]2(c3cc(C#Cc4ccc(OC)cc4)ccc31)[C@H](c1ccc(O)cc1)N1[C@H](c3ccccc3)[C@H](c3ccccc3)OC(=O)[C@H]1[C@@H]2C(N)=O	-0.145
O=C1[C@H]2[C@H]3[C@H](O)[C@H](O)CC(=NOCc4ccccc4)[C@H]3CC[C@H]2C(=O)N1c1ccc(F)cc1F	-0.373

Suppose we examine the molecule COC(=O)CC=C[C@H](C)[C@@H](OCc1ccccc1Br)C(C)C ; what composite z-score value has been reported?
-0.228

Need composite z-score, item COCC1=C2[C@@H](CCc3ccccc3)OB(O)C[C@@H]2n2c(=O)n(-c3ccccc3)c(=O)n2C1
-0.166

Entry C[C@H]1CC[C@@H](C(=O)O)N[C@@H]1c1ccc(C#CCN(C)C)cc1 has what composite z-score?
-0.128

Which composite z-score is reported for this molecule? COC(=O)CC=C[C@@H](C)[C@@H](C=NO[C@@H](C)c1cc(-c2c(C)cc(C)cc2C)no1)OC
-0.047

Looking for the measured composite z-score of CCOC(=O)[C@H](Cc1ccccc1)NC(=O)CCC1CC(OC(=O)NCc2ccc3c(c2)OCO3)CC2(CCCC(COC(=O)NCC(c3ccccc3)c3ccccc3)O2)O1 (some centres undefined) , can you help?
-0.0485

Find the recorded composite z-score belonging to COCCCNC(=O)[C@@]1(C)c2ccccc2C(=O)N(Cc2ccc(OC(F)(F)F)cc2)[C@H]1c1ccc(CO)cc1 and report it.
0.134

====

Experiment: binders from COS7 lysate, DM2A8 probe, primary screen, torsin A project, cell lysate, small-molecule microarray, fluorescence 635/667 (AID 1065)
Conditions: higher = more signal, COS7 lysate expressing mutant human TOR1A
Heads up, the class ranges for composite z-score are lower range (below 0.2), middle range (0.2 to below 0.7), upper range (0.7 or more)

Compound	Class
COc1cccc([C@H]2Oc3ccc(OC)cc3C(=NO[C@H](C)c3cn([C@@H]4COC[C@H]4O)nn3)[C@@H]2O)c1	lower range
CCCC=C(CCC)[C@@H](NC(=O)c1ccc(-c2ccccc2)cc1)c1ccc(C(=O)OC)cc1	lower range
C=CC[C@@H]1C=C[C@H](ON=C(C)CCN2CCc3nc(CC)c(CC)cc3C2)[C@@H](CO)O1	upper range
CC(=O)OC[C@H]1O[C@@H](ON=C[C@@H](C)[C@H](OCc2ccccc2)C(C)C)[C@H](OC(C)=O)[C@@H](OC(C)=O)[C@@H]1OC(C)=O	upper range

Hello team, could you let me know which band the following compound falls into: CN1C(=O)C2C=CC(C(O)C(c3ccccc3)c3ccccc3)N(NC(=O)OC(C)(C)C)C2C1=O (centres undefined)
upper range

In plain terms, what class is Cc1ccc(F)cc1S(=O)(=O)N[C@@H]1CCN(Cc2ccc(CC(C)C)cc2)C1 ?
lower range

Band of C[C@@H]1CCC2C(=O)N(Cc3ccccc3)C[C@@H](O)CN2[C@H]1c1ccc(Br)cc1 (some centres undefined) ?
middle range

In plain terms, what class is COC(=O)[C@H](C)NC(=O)CCC1CC(OC(=O)NCc2cccc3ccccc23)CC2(CCCC(COC(=O)NCCc3ccc(Cl)cc3)O2)O1 (some centres undefined) ?
lower range

For the record COc1ccc(-c2ccc3c(n2)CCCN3CC(O)CN2CCCc3nc(C)c(C)cc32)cc1 (centres undefined) , report the class its composite z-score corresponds to.
upper range

Into which bin does this compound go? COc1ccc(O[C@H]2C=C[C@@H](c3ccccc3)O[C@@H]2COC(=O)CCC(C)=NOC[C@@H](C)[C@H](OCc2ccccc2)C(C)C)cc1
lower range

// return the class label for CC(C)(C)N1C(=O)[C@H]2[C@H]3[C@H](O)[C@H](O)CC(=NOCc4ccccc4)[C@@H]3CC[C@H]2C1=O
middle range

Bin? CC1(C)OCC(C(O)C2=CCCCC2=O)CO1 (centres undefined)
middle range

For the record CCOC(=O)C1=CC[C@H]2C(=O)N(CC)C(=O)[C@@H]12 , report the class its composite z-score corresponds to.
middle range

Bin? COc1ccc(O[C@@H]2[C@H](O)CO[C@H]2C=CC#Cc2ccccc2)cc1
middle range

# bin label for CC[C@@H](c1ccccc1)n1c(=O)n2n(c1=O)[C@H]1[C@H](O)[C@@H]3O[C@@H]3C(=NOCC(C)C)[C@H]1CC2
middle range

Band assignment needed for C[C@@H]1C=CCC(=O)OC[C@H](C)C(=O)N[C@@H](C)C(=O)OC1 please.
upper range

For O=C1[C@H]2[C@H]3[C@H](O)[C@H](O)CC(=NOCc4ccccc4)[C@H]3CC[C@H]2C(=O)N1c1cccc(Oc2ccccc2)c1 , which composite z-score bin applies?
lower range

Consider O=C1O[C@@H](c2ccccc2)[C@@H](c2ccccc2)N2[C@@H](c3ccccc3OCCO)[C@]3(C(=O)Nc4ccc(C#CCCO)cc43)[C@@H](C(=O)O)[C@H]12 . To which composite z-score class does it belong?
middle range

Please report the category associated with CO[C@@H]1COC(=O)CCC[C@@H](C)[C@H](OC)COC(=O)CCC[C@H]1C , nothing else.
upper range

Which composite z-score category applies to C[C@H]1Cc2c(-c3ccccc3)nc3c(c2CO1)CN(CCOc1ccccc1)CC3 here?
middle range

Input O=C(CS)NCCCCCNC(=O)[C@H]1C[C@H]2C(=O)N3CCC[C@H]3C(=O)N2[C@H]1c1cccc(OCCO)c1 ; output its category
upper range
